- Tested on: Oryza sativa (ORYSA)
- Assay type: in vivo
- Assay conditions: pre-emergence, 80 g/ha, crop plant compatibility, in comparison to untreated controls
Field: Pre-emergence action against ORYSA in %. Provide a value for each of the molecules that follow.
Answers are plain numbers, in %.

Each molecule below has a recorded value; state its Pre-emergence action against ORYSA in %.
1. Cc1cccc(-n2nc(OCC(=O)O)c(Cl)c2-c2ccc(F)nc2)n1 [Example I-351]
2. O=C(O)CSc1nn(-c2ccccn2)c(-c2ccc(F)nc2)c1Br [Example I-69]
3. CCOC(=O)COc1nn(-c2ncccc2Cl)c(-c2ccc(F)nc2)c1Br [Example I-23]
4. COC(=O)C1CCN(C(=O)COc2nn(-c3ccccn3)c(-c3ccc(F)nc3)c2Br)C1 (centres unmarked) [Example I-109]
5. COC(=O)CNC(=O)COc1nn(-c2ccccn2)c(-c2ccc(F)nc2)c1C1CC1 [Example I-70]
6. O=C(O)COc1nn(-c2ccnc(Cl)c2)c(-c2ccc(F)nc2)c1Br [III-23]
7. CC(=O)CNC(=O)COc1nn(-c2ccnc(F)c2)c(-c2ccc(F)nc2)c1Br [III-07]

Output:
20
0
10
10
0
0
0

---

- Tested on: Echinochloa crus-galli (ECHCG)
- Test method notes: Pre-emergence herbicidal action against ECHCG
- Type: in vivo
- Assay conditions: dosage 320 g/ha
Quantity kind: Pre-emergence action against ECHCG in % (%)
One number for each entry, in %.

Completed entries (count: 8):
compound=O=C(O)COc1nn(-c2ncccc2F)c(-c2cncc(F)c2)c1C1CC1 quantity_kind="Pre-emergence action against ECHCG in %" u=% quantitative_readout=100
compound=COC(=O)CNC(=O)COc1nn(-c2ccccn2)c(-c2ccc(F)nc2)c1Cl quantity_kind="Pre-emergence action against ECHCG in %" u=% quantitative_readout=100
compound=CCOC(=O)COc1nn(-c2nc(F)ccc2F)c(-c2cncc(F)c2)c1Cl quantity_kind="Pre-emergence action against ECHCG in %" u=% quantitative_readout=90
compound=COC(=O)[C@H](C)COC(=O)COc1nn(-c2ccccn2)c(-c2cncc(F)c2)c1Cl quantity_kind="Pre-emergence action against ECHCG in %" u=% quantitative_readout=100
compound=CCOC(=O)CCNC(=O)COc1nn(-c2ncccc2F)c(-c2ccc(OC)nc2)c1Br quantity_kind="Pre-emergence action against ECHCG in %" u=% quantitative_readout=90
compound="O=C(COc1nn(-c2ncccc2C(F)(F)F)c(-c2cncc(F)c2)c1Br)OCC1CCOC1 (racemic)" quantity_kind="Pre-emergence action against ECHCG in %" u=% quantitative_readout=80
compound=CCOC(=O)COc1nn(-c2cccc(C)n2)c(-c2ccc(F)nc2)c1Cl quantity_kind="Pre-emergence action against ECHCG in %" u=% quantitative_readout=90
compound=C#CCOC(=O)COc1nn(-c2ccccn2)c(-c2ccc(F)nc2)c1Br quantity_kind="Pre-emergence action against ECHCG in %" u=% quantitative_readout=100

Need Pre-emergence action against ECHCG in % for each of these compounds.
1. CCOC(=O)[C@@H](C)Oc1nn(-c2ncccc2F)c(-c2ccc(F)nc2)c1F
2. COC(=O)COc1nn(-c2ncccc2F)c(-c2ccc(F)nc2)c1C1CC1
3. COC(=O)[C@@H](C)Oc1nn(-c2nc(F)ccc2F)c(-c2cncc(F)c2)c1Cl

Output:
1: 90; 2: 100; 3: 100
